biological target: HIV-1 reverse transcriptase, heterodimeric p66/p51 (HIV-1), P03366; assay: RT polymerase inhibition assay, Ki from Dixon plot
pKi: −log10 of the molar value. Where no end group is shown, it is not given here.
# pKi >= 5 gives fulfilled, anything below gives not fulfilled

Recorded results for 4 binders are shown here.
> print(dat)
                                     binder          label
1  GTKALTEVIPATEEAE (modifications not checked) [P12]  not fulfilled
2  GTKWATEWAPLTAEAE (modifications not checked) [P28]      fulfilled
3  GTKWLTEWIPLTAEAE (modifications not checked) [PAW]      fulfilled
4  GTKWLTEWIPLTAEAEC (not fully specified) [PAW-FITC]      fulfilled

Quick check: does GTKAATEVIPLTEEAE (modifications not checked) [P6] have pKi greater than or equal to 5?
fulfilled

Please indicate if the recorded pKi for RGTKALTEVIPLTEEAE (modifications not checked) [Pep-A] meets or exceeds 5.
not fulfilled

Given the entry GTKWLTEWIPLTAE (modifications not checked) [P27] , answer whether its pKi meets or surpasses 5.
fulfilled

Say whether GTKWLTEWIPL (modifications not checked) [P24] shows pKi of 5 or more.
fulfilled

// inclusive: pKi at least 5? input: GAKTETLVIPETELEA (modifications not checked) [Pscramble]
not fulfilled

Hi, just wondering whether ATKALTEVIPLTEEAE (modifications not checked) [P2] shows pKi of 5 or higher.
not fulfilled

Form field: pKi at least 5? Entry: KWLTEWIPLTAE (modifications not checked) [P29]
fulfilled

I'd appreciate it if you could say whether GTKALTEVIALTEEAE (modifications not checked) [P11] has pKi at least equal to 5.
fulfilled

Determine whether this binder has pKi no lower than 5: GTKALTAVIPLTEEAE (modifications not checked) [P8]
not fulfilled

hey, is pKi for this one >= 5? GTAALTEVIPLTEEAE (modifications not checked) [P4]
not fulfilled

Reported pKi reaches at least 5 for GTKAATEVIPLT (modifications not checked) [P19] ?
not fulfilled

Determine whether this binder has pKi no lower than 5: GTKGLTEVIPLTEEAE (modifications not checked) [P5]
not fulfilled

State whether the measured pKi reaches 5, counting equality as reaching it, for GTKALTEVIPLT (modifications not checked) [P18]
not fulfilled
